# maps each entry to its Neutralization IC50, H3-Perth09
# STUDY_SYSTEM: HA of ca A/Perth/16/09 (H3N2) virus (influenza A virus)
# ASSAY_TEXT: cell-based or functional assay
OBSERVABLE: Neutralization IC50, H3-Perth09 (µg/mL)

| BINDER | OBSERVABLE | NUMBER |
| --- | --- | --- |
| Antibody 15 (antibody, V domains shown) VH: QVQLQQSGPGLVKPSQTLSLTCAISGDSVSSNNAVWNWIRQSPSRGLEWLGRTYYRSKWYNDYAESVKSRITINPDTSKNQFSLQLNSVTPEDTAVYYCARSGHITVFGVNVDAFDMWGQGTTVTVSS VL: DIQMTQSPSSLSASVGDRVTITCRTSQSLSSYTHWYQQKPGKAPKLLIYAASSRGSGVPSRFSGSGSGTDFTLTISSLQPEDFATYYCQQSRTFGQGTKVEIK | Neutralization IC50, H3-Perth09 | 0.5 |
| Antibody 14 (antibody, V domains shown) VH: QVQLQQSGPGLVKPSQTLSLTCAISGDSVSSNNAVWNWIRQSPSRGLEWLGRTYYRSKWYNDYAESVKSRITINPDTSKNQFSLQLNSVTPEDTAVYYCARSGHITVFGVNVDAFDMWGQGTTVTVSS VL: DIQMTQSPSSLSASVGDRVTITCRTSQSLSSYTHWYQQKPGKAPKLLIYAASSRLSGVPSRFSGSGSGTDFTLTISSLQPEDFATYYCQQSRTFGQGTKVEIK | Neutralization IC50, H3-Perth09 | 0.47 |
| Antibody 11 (antibody, V domains shown) VH: QVQLQQSGPGLVKPSQTLSLTCAISGDSVSSYNAVWNWIRQSPSRGLEWLGRTYYRSGWYNDYAESVKSRITINPDTSKNQFSLQLNSVTPEDTAVYYCARSGHITVFGVNVDAFDMWGQGTMVTVSS VL: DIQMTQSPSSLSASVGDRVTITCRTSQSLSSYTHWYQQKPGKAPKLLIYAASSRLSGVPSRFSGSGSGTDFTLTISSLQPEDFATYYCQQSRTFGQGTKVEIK | Neutralization IC50, H3-Perth09 | 0.17 |
| Antibody 13 (antibody, V domains shown) VH: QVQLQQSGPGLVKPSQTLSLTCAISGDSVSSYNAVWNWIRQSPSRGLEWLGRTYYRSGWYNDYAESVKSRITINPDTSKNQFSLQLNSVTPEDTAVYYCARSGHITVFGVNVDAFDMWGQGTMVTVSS VL: DIQMTQSPSSLSASVGDRVTITCRTSQSLSSYDHWYQQKPGKAPKLLIYAASSRLSGVPSRFSGSGSGTDFTLTISSLQPEDFATYYCQQSRTFGQGTKVEIK | Neutralization IC50, H3-Perth09 | 0.28 |
